Hi there, I'd appreciate the recorded protein stability index for every entry that follows.
assay notes: protein stability index of a GFP-peptide fusion (GPS, HEK-293T) (PSI 1-6); higher = more stable;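 further: 24-mer peptide tiles fused after GFP, lentivirally expressed, FACS-sorted into six equal bins by GFP/DsRed ratio, decoded by Illumina sequencing, PSI is the read-weighted mean bin number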
measurement context: treatment: MLN4924 1 uM, 8 h; c terminus: a fixed tail appended
Respond with the number and no other words.

Query :: Form field: reported protein stability index of MAAAQEADGARSAVVAAGGGSSGQ [CLPTM1]
Result :: 5.29

Query :: So what does the record say about protein stability index for IQNAHKNSTGSGRGKKLMVLTEPI [TPRG1] ?
Result :: 3.66

Query :: Bench note: what protein stability index did VNRKSVKGNTALHDCAESGSLDIM [FEM1C] show?
Result :: 3.46

Query :: I am curious: what protein stability index value has been reported for PGSTRPHRSACSSAAVRGHPRALP [HAGHL] ?
Result :: 3.15

Query :: Which value of protein stability index has been reported for HLIKHRRTHTGEQPYTCSICRRNF [ZNF75A] in the records?
Result :: 2.99

Query :: Requested field: protein stability index. Item: QYEVSNFARNGALSTHNWTYWQCG [RSAD1]
Result :: 2.05

Query :: Quick one: protein stability index of KKKNTNKQEMGTYLRFIVSRMKER [ZMYND11] ?
Result :: 2.92

Query :: # input sequence: YGQGRKIAEVCCTSIVYATEKKQT [KCTD10] ; wanted: its protein stability index
Result :: 3.1

Query :: Name the reported protein stability index value associated with the sequence ANGEVTYSFRKLPDTQLLKFQLNK [PCDHGA10]
Result :: 2.85

Query :: Entry HLANHDDLISKSFQGSQGRAYLFN [YPEL3] : reported protein stability index = ?
Result :: 3.03

Query :: Return reported protein stability index; argument: EMSEKRGPTSSNPRKRHREDSDVE [MLH1]
Result :: 5.49

Query :: Need protein stability index of LYVLKGGYKEFFMKCQSYCEPPSY [CDC25A] , thanks.
Result :: 2.65

Query :: Entry under review: NDSGICMSPESYLGSPQHSPSTRG [ATF4] . Reported protein stability index?
Result :: 4.86

Query :: // protein stability index lookup, key: QVTCSILAYLPFKLEKSIDSYYRL [PCDHGA10]
Result :: 2.05

Query :: What value of protein stability index has been reported for the following sequence? EEANADLEVKIRDWYQRQRPSEIK [KRT16]
Result :: 4.72

Query :: Would you mind telling me what protein stability index value was observed for RFFIDFPHIEEQQKKIESYLHNHF [TENT5D] ?
Result :: 2.35

Query :: Tell me the measured protein stability index of MLNEPLVREIVKECSNIPLSQPQQ [GAN] , please.
Result :: 3.95

Query :: I'd like to know its protein stability index. The sequence in question is EYLENQVIKDKDDSVDAQNICHVW [RNF180]
Result :: 3.57

Query :: // returns reported protein stability index for input LPILTWPVLQSRTGLVYDQNMMNH [HDAC6]
Result :: 2.3

Query :: Quick one: protein stability index of HGASAPSVSREARQTVPPLTVRLH [PWWP2B] ?
Result :: 3.73

Query :: Look up protein stability index for this sequence: RYLEAEFKKGNRYIRCQKEVGKSF [SMG5]
Result :: 2.29

Query :: Entry NVGRVHRVAKKLQSGLVWTNCWLI [ALDH8A1] : reported protein stability index = ?
Result :: 2.61

Query :: GET /values?readout=protein stability index&item= SFGACLREETPRMPSWASARDRQP [ELOA2]
Result :: 3.13

Query :: State the recorded protein stability index for this entry: SSLEEIVEKQGDTIEYLKRHNALL [TMEM192]
Result :: 3.92

Query :: Requested field: protein stability index. Item: VRDGPFGFSPIIGRFCGQQNPPVI [NETO1]
Result :: 2.25

Query :: Dear colleague, I am looking for the recorded protein stability index of the following sequence: SWQDLKDHMREAGDVCYADVYRDG [SRSF1]
Result :: 4.21

Query :: Entry under review: YLNHVRAASPQDLAGGYTSSLACH [MNAT1] . Reported protein stability index?
Result :: 2.95
